Where do the numbers come from? From the kinase profiling compilation of Christmann-Franck et al. (2016).

Target: MYLK (human) (UniProt Q15746)
Sequence (Q15746 whole entry, looked up): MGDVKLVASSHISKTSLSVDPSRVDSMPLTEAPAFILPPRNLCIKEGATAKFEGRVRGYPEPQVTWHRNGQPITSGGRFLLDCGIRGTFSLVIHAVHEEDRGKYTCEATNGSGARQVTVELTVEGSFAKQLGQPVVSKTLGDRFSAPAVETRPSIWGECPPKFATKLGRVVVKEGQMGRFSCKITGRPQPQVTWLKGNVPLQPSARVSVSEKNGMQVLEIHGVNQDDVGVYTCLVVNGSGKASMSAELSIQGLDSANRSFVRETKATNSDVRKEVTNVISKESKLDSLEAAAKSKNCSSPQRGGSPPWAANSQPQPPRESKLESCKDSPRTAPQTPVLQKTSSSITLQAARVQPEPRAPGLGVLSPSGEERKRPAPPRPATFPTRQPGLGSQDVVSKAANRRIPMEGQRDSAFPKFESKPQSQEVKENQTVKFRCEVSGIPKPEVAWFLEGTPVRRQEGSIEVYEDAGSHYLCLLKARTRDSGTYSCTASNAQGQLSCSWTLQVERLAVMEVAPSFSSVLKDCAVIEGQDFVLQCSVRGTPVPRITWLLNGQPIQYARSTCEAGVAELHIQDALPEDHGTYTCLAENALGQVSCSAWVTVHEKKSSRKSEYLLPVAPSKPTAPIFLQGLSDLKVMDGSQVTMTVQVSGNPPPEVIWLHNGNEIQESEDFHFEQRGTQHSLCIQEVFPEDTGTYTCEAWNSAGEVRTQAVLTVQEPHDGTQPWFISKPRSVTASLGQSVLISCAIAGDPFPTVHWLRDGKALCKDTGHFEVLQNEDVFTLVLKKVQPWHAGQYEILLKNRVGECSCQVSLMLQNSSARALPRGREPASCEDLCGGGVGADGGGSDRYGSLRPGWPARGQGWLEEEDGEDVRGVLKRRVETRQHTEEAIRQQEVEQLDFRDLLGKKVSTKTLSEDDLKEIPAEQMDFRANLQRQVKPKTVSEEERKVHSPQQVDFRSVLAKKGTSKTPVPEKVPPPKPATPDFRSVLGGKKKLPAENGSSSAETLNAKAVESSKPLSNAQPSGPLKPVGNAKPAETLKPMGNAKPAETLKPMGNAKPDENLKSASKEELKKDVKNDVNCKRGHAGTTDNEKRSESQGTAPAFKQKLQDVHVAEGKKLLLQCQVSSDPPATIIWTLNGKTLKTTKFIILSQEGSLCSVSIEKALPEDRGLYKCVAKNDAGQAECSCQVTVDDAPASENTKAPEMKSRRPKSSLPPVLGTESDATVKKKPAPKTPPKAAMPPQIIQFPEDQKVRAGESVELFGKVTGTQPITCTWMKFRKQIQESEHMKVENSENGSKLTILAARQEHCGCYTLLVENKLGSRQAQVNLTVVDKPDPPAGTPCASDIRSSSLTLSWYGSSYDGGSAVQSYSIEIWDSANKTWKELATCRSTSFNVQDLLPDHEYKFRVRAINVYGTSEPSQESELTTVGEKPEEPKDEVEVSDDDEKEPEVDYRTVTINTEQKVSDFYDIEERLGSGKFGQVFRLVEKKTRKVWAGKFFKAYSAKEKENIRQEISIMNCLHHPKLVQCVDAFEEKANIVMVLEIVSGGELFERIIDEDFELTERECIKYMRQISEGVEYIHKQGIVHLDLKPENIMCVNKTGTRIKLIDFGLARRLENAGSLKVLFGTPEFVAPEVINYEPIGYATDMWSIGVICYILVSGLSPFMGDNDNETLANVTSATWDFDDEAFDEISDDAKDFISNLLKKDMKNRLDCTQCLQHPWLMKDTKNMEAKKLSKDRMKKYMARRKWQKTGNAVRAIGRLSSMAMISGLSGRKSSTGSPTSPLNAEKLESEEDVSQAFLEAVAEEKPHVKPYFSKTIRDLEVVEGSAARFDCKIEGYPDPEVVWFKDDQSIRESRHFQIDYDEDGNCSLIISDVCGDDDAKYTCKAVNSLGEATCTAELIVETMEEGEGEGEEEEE
Experiment: KINOMEscan competition binding
Settings: compound 10.0 µM
Form field: kinase still bound, per cent of control (one value per entry).
measurement_type: kinase still bound, per cent of control

| compound | test_value |
| --- | --- |
| COc1cc(N2CCN(C)CC2)ccc1Nc1ncc2c(n1)N(C)c1ccccc1N(C)C2=O | 97% |
| COc1cc(C(=O)NC2CCC(O)CC2)ccc1Nc1ncc2c(n1)N(C1CCCC1)[C@@H]1CCC[C@@H]1C(=O)N2C (some centres undefined) | 1.7% |
| COc1cc(N2CCC(O)CC2)ccc1Nc1ncc2c(n1)N1CCc3cccc(c31)C(=O)N2C | 16% |
| Cc1cn(-c2cc(NC(=O)c3cccc4cc(-c5ccc(/C=C6\SC(=N)NC6=O)o5)ccc34)cc(C(F)(F)F)c2)cn1 | 21% |
